Target: T1, CD79b on the surface of B-cell non-Hodgkin's lymphoma cells (human, UniProt P40259 29-229)
T1 construct: whole, on cells; Endogenous CD79b of the cell lines; on cells it stands in the B cell receptor complex with CD79a; also called CD79b on Ramos cells; CD79b on BJAB cells
T1 sequence (looked up): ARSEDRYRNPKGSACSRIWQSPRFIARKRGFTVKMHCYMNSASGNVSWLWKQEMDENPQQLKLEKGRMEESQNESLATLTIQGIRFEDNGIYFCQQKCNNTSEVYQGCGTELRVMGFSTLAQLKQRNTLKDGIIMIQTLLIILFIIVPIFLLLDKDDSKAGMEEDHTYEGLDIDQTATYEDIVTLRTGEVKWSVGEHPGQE
Experiment: flow cytometry on BJAB cells, goat anti-human IgG PE
Each entry below carries its reported EC50 (read off the curve).

hz38D9B3.11 (antibody, V domains shown, Humanized monospecific anti-CD79b antibody) VH: QVQLVQSGSELKKPGASVKVSCKASGYTFTDYSMHWVRQAPGQGLEWMGWINTETGEPSYADDFKGRFVFSLDTSVSTAYLQISSLKAEDTAVYYCYYGPYWGQGTLVTVSS VL: EIVLTQSPATLSLSPGERATLSCKASQSVDHDVDSYMDWYQQKPGQAPRLLIYSASNLESGIPARFSGSGSGTDFTLTISSLEPEDFAVYYCQQINEYPYTFGGGTKVEIK; ~2 nM

Looking up A7v14b (antibody, V domains shown, also called CD79b.A7v14b) VH: EVQLVQSGAEVKKPGASVKVSCKASGYTFTTYYMNWVRQAPGQGLEWIGMIDPSDSETHYNQKFQGRATLTVDTSTSTAYLELSSLRSEDTAVYYCSRSLAFWGQGTLVTVSS VL: DIVMTQTPLSLPVTPGQPASISCKSSQSLLDSDGKTYLNWLLQKPGQSPQSLIYLVSKLDSGVPDRFSGSGSGTDFTLKISRVEAEDVGVYYCWQGTHFPQTFGQGTKVEIK , I found its EC50 (read off the curve) recorded as ~3 nM
